# Assayed system: T1, His-tagged cynomolgus monkey CD38 (ACRO Biosystems, CD8-05223 [sic]) (cynomolgus monkey, UniProt Q5VAN0 43-301)
# T1 construct: bought protein; used for ELISA coating and as SPR analyte; not shown: His tag
# Test description: SPR, IgG

Binder: 40769p2.1.E5 IgG (antibody, V domains shown, IgG) VH: EVQLLESGGGLVQPGGSLRLSCTASAHIFKYNWMSWVRQAPGKGLEWVSSINSDGTITYYTDSVKGRFTISRDNSKNTLYLQMNSLRAEDTAVYYCAKDNWNDYAIDVWGQGTTVTVSS VL: QSVLTQPPSASGTPGQRVTISCSGSRSDIRNNYVSWYQQLPGTAPKLLIYSNGQRPSGVPDRFSGSKSGTSASLAISGLQSEDEADYYCAIWDDSLNAWVFGGGTKLTVL
Kd: 467 nM
